Each recorded value in this set is attributed to PubChem BioAssay AID2060889.

Test system: LG0567-F671-PDC complex spheroids viability
Assay: Anticancer human tumor LG0567-F671-PDC patient-derived lung adenocarcinoma cell line growth inhibition [RAS]
Conditions: second compound 0.00316 µM; first compound 0.0316 µM; active compounds read low
endpoint: viability, T/C (%)

>>> observed("CCC(CC)c1cc(NC2CCC(N)C2)n2nccc2n1 (stereo not given) + C=CC(=O)N1CCN(c2nc(OCC3CCCN3C)nc3c(F)c(-c4nc(N)cc(C)c4C(F)(F)F)c(Cl)cc23)C(C)C1")
18.7
>>> observed("C=CC(=O)Nc1cc(Nc2nccc(-c3cn(C)c4ccccc34)n2)c(OC)cc1N(C)CCN(C)C + C=CC(=O)N1CCN(c2nc(OCC3CCCN3C)nc3c(F)c(-c4nc(N)cc(C)c4C(F)(F)F)c(Cl)cc23)C(C)C1")
12.6
>>> observed("CC(C)n1nc(-c2ccc3oc(N)nc3c2)c2c(N)ncnc21 + C=CC(=O)N1CCN(c2nc(OCC3CCCN3C)nc3c(F)c(-c4nc(N)cc(C)c4C(F)(F)F)c(Cl)cc23)C(C)C1")
7.75
>>> observed("CC(C)NCC(C(=O)N1CCN(c2ncnc3c2C(C)CC3O)CC1)c1ccc(Cl)cc1 (stereo not given) + C=CC(=O)N1CCN(c2nc(OCC3CCCN3C)nc3c(F)c(-c4nc(N)cc(C)c4C(F)(F)F)c(Cl)cc23)C(C)C1")
16.6
>>> observed("O=C(c1ccc(F)c(F)c1Nc1ccc(I)cc1F)N1CC(O)([C@@H]2CCCCN2)C1 + C=CC(=O)N1CCN(c2nc(OCC3CCCN3C)nc3c(F)c(-c4nc(N)cc(C)c4C(F)(F)F)c(Cl)cc23)C(C)C1")
8.91
>>> observed("CC1(O)CCCC1n1c(=O)c(C(F)F)cc2cnc(NC3CCN(S(C)(=O)=O)CC3)nc21 (stereo not given) + C=CC(=O)N1CCN(c2nc(OCC3CCCN3C)nc3c(F)c(-c4nc(N)cc(C)c4C(F)(F)F)c(Cl)cc23)C(C)C1")
20.1
>>> observed("Nc1ccn(C2OC(CO)C(O)C2(F)F)c(=O)n1 (stereo not given) + C=CC(=O)N1CCN(c2nc(OCC3CCCN3C)nc3c(F)c(-c4nc(N)cc(C)c4C(F)(F)F)c(Cl)cc23)C(C)C1")
14.8
>>> observed("Cc1nc(N2CCC3(CC2)COC(C)C3N)c(CO)nc1Sc1ccnc(N)c1Cl (stereo not given) + C=CC(=O)N1CCN(c2nc(OCC3CCCN3C)nc3c(F)c(-c4nc(N)cc(C)c4C(F)(F)F)c(Cl)cc23)C(C)C1")
12.4
>>> observed("CC(=O)OC12COC1CC(O)C1(C)C(=O)C(O)C3=C(C)C(OC(=O)C(O)C(NC(=O)OC(C)(C)C)c4ccccc4)CC(O)(C(OC(=O)c4ccccc4)C21)C3(C)C (stereo not given) + C=CC(=O)N1CCN(c2nc(OCC3CCCN3C)nc3c(F)c(-c4nc(N)cc(C)c4C(F)(F)F)c(Cl)cc23)C(C)C1")
14
>>> observed("C[C@@H](NC(=O)c1ncnc(N)c1Cl)c1ncc(C(=O)Nc2cc(C(F)(F)F)c(Cl)cn2)s1 + C=CC(=O)N1CCN(c2nc(OCC3CCCN3C)nc3c(F)c(-c4nc(N)cc(C)c4C(F)(F)F)c(Cl)cc23)C(C)C1")
23

----------
System: LG0567-F671-PDC complex spheroids viability
Assay: Anticancer human tumor LG0567-F671-PDC cell line growth inhibition [RAS];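 further: spheroids exposed to compound for seven days before readout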
Details: second compound 1 µM; first compound 0.316 µM; active compounds read low
Entries and their viability, T/C
endpoint: viability, T/C (%)

>>> observed("NC1c2ccccc2OC12CCN(c1cnc3c(N4CCCc5ncccc54)n[nH]c3n1)CC2 (stereo not given) + C#Cc1c(F)ccc2cc(O)cc(-c3ncc4c(N5CC6CCC(C5)N6)nc(OCC56CCCN5CC(F)C6)nc4c3F)c12")
4
>>> observed("CCN1CCN(Cc2ccc(Nc3ncc(F)c(-c4cc(F)c5nc(C)n(C(C)C)c5c4)n3)nc2)CC1 + C#Cc1c(F)ccc2cc(O)cc(-c3ncc4c(N5CC6CCC(C5)N6)nc(OCC56CCCN5CC(F)C6)nc4c3F)c12")
28.4
>>> observed("O=C(c1ccc(F)c(F)c1Nc1ccc(I)cc1F)N1CC(O)([C@@H]2CCCCN2)C1 + C=CC(=O)N1CCN(c2nc(OCC3CCCN3C)nc3c(F)c(-c4nc(N)cc(C)c4C(F)(F)F)c(Cl)cc23)C(C)C1")
4.07
>>> observed("Cc1nc(N2CCC3(CC2)COC(C)C3N)c(CO)nc1Sc1ccnc(N)c1Cl (stereo not given) + C=CC(=O)N1CCN(c2nc(OCC3CCCN3C)nc3c(F)c(-c4nc(N)cc(C)c4C(F)(F)F)c(Cl)cc23)C(C)C1")
6.91
>>> observed("Nc1ccn(C2OC(CO)C(O)C2(F)F)c(=O)n1 (stereo not given) + C#Cc1c(F)ccc2cc(O)cc(-c3ncc4c(N5CC6CCC(C5)N6)nc(OCC56CCCN5CC(F)C6)nc4c3F)c12")
27.9

----------
Test system: LG0567-F671-PDC complex spheroids viability
Assay: Anticancer human tumor LG0567-F671-PDC cell line growth inhibition [RAS];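 further: spheroids exposed to compound for seven days before readout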
Details: second compound 0.0316 µM; first compound 0.00316 µM; active compounds read low
Each record here notes measured viability, T/C.
endpoint: viability, T/C (%)

>>> observed("C=CC(=O)Nc1cc(Nc2nccc(-c3cn(C)c4ccccc34)n2)c(OC)cc1N(C)CCN(C)C + C#Cc1c(F)ccc2cc(O)cc(-c3ncc4c(N5CC6CCC(C5)N6)nc(OCC56CCCN5CC(F)C6)nc4c3F)c12")
88.7
>>> observed("Nc1ccn(C2OC(CO)C(O)C2(F)F)c(=O)n1 (stereo unspecified) + C=CC(=O)N1CCN(c2nc(OCC3CCCN3C)nc3c(F)c(-c4nc(N)cc(C)c4C(F)(F)F)c(Cl)cc23)C(C)C1")
15
>>> observed("Nc1ccn(C2OC(CO)C(O)C2(F)F)c(=O)n1 (stereo unspecified) + C#Cc1c(F)ccc2cc(O)cc(-c3ncc4c(N5CC6CCC(C5)N6)nc(OCC56CCCN5CC(F)C6)nc4c3F)c12")
76.6
>>> observed("CCN1CCN(Cc2ccc(Nc3ncc(F)c(-c4cc(F)c5nc(C)n(C(C)C)c5c4)n3)nc2)CC1 + C=CC(=O)N1CCN(c2nc(OCC3CCCN3C)nc3c(F)c(-c4nc(N)cc(C)c4C(F)(F)F)c(Cl)cc23)C(C)C1")
14.8
>>> observed("CC(C)n1nc(-c2ccc3oc(N)nc3c2)c2c(N)ncnc21 + C=CC(=O)N1CCN(c2nc(OCC3CCCN3C)nc3c(F)c(-c4nc(N)cc(C)c4C(F)(F)F)c(Cl)cc23)C(C)C1")
9.25
>>> observed("C=CC(=O)N1CCN(c2nc(OCC3CCCN3C)nc3c(F)c(-c4nc(N)cc(C)c4C(F)(F)F)c(Cl)cc23)C(C)C1 (stereo unspecified) + C#Cc1c(F)ccc2cc(O)cc(-c3ncc4c(N5CC6CCC(C5)N6)nc(OCC56CCCN5CC(F)C6)nc4c3F)c12")
17.4
>>> observed("C=CC(=O)Nc1cc(Nc2nccc(-c3cn(C)c4ccccc34)n2)c(OC)cc1N(C)CCN(C)C + C=CC(=O)N1CCN(c2nc(OCC3CCCN3C)nc3c(F)c(-c4nc(N)cc(C)c4C(F)(F)F)c(Cl)cc23)C(C)C1")
13.3
>>> observed("O=C(c1ccc(F)c(F)c1Nc1ccc(I)cc1F)N1CC(O)([C@@H]2CCCCN2)C1 + C#Cc1c(F)ccc2cc(O)cc(-c3ncc4c(N5CC6CCC(C5)N6)nc(OCC56CCCN5CC(F)C6)nc4c3F)c12")
80.2
>>> observed("CCN1CCN(Cc2ccc(Nc3ncc(F)c(-c4cc(F)c5nc(C)n(C(C)C)c5c4)n3)nc2)CC1 + C#Cc1c(F)ccc2cc(O)cc(-c3ncc4c(N5CC6CCC(C5)N6)nc(OCC56CCCN5CC(F)C6)nc4c3F)c12")
83.8
>>> observed("CC(C)n1nc(-c2ccc3oc(N)nc3c2)c2c(N)ncnc21 + C#Cc1c(F)ccc2cc(O)cc(-c3ncc4c(N5CC6CCC(C5)N6)nc(OCC56CCCN5CC(F)C6)nc4c3F)c12")
83.4
>>> observed("O=C(c1ccc(F)c(F)c1Nc1ccc(I)cc1F)N1CC(O)([C@@H]2CCCCN2)C1 + C=CC(=O)N1CCN(c2nc(OCC3CCCN3C)nc3c(F)c(-c4nc(N)cc(C)c4C(F)(F)F)c(Cl)cc23)C(C)C1")
11.8

----------
System: LG0567-F671-PDC complex spheroids viability
Assay: Anticancer human tumor LG0567-F671-PDC cell line growth inhibition [RAS];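 further: spheroids exposed to compound for seven days before readout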
Conditions: second compound 10 µM; first compound 1 µM; active compounds read low
This listing pairs compounds with measured viability, T/C.
endpoint: viability, T/C (%)

>>> observed("C=CC(=O)Nc1cc(Nc2nccc(-c3cn(C)c4ccccc34)n2)c(OC)cc1N(C)CCN(C)C + C#Cc1c(F)ccc2cc(O)cc(-c3ncc4c(N5CC6CCC(C5)N6)nc(OCC56CCCN5CC(F)C6)nc4c3F)c12")
2.83
>>> observed("CC(C)NCC(C(=O)N1CCN(c2ncnc3c2C(C)CC3O)CC1)c1ccc(Cl)cc1 (centres undefined) + C#Cc1c(F)ccc2cc(O)cc(-c3ncc4c(N5CC6CCC(C5)N6)nc(OCC56CCCN5CC(F)C6)nc4c3F)c12")
9.42
>>> observed("CCC(CC)c1cc(NC2CCC(N)C2)n2nccc2n1 (centres undefined) + C#Cc1c(F)ccc2cc(O)cc(-c3ncc4c(N5CC6CCC(C5)N6)nc(OCC56CCCN5CC(F)C6)nc4c3F)c12")
9.32
>>> observed("Nc1ccn(C2OC(CO)C(O)C2(F)F)c(=O)n1 (centres undefined) + C#Cc1c(F)ccc2cc(O)cc(-c3ncc4c(N5CC6CCC(C5)N6)nc(OCC56CCCN5CC(F)C6)nc4c3F)c12")
9.14
